The reported measurements were obtained from PubChem BioAssay (NCI).

Test system: NCI-H322M lung
Assay: NCI-60 one-dose screen, 48 h (100 = growth as untreated, 0 = no growth, -100 = all killed)
Conditions: 10 µM unless noted
About 83,000 compounds went through this panel and 20% of them were active in at least one assay; those are over-represented in the sample as a whole. The source made the active and inactive calls. How the source made its calls: active means growth percent below 10; inactive means the rest.

input smiles | growth
CCN1CC(=O)N(/N=C2\C(=O)Nc3ccccc32)C1=S | 88.6% (inactive)
COc1ccc2cc(-c3ccc(NC(C)=O)c(=O)o3)ccc2c1 | 92.2% (inactive)
Cc1ccc(-n2c(=S)[nH]c3sc4c(c3c2=O)CCC(=O)C4)cc1 | 89.5% (inactive)

----------
Tested on: DU-145 prostate
Test: NCI-60 one-dose screen, 48 h (100 = growth as untreated, 0 = no growth, -100 = all killed)
Conditions: 10 µM unless noted
Compounds without any hit were thinned out: in the full panel of roughly 83,000, 20% have a hit.
observable: growth (%)

molecule | assay target | unit abbrev | result value
O=C(Cc1ccccc1)Nc1nc(O)c(/C=C2\C(=O)C=Cc3ccccc32)s1 | DU-145 prostate | % | 104
O=C(CCCCC1CCSS1)Nc1ncnc2n[nH]c(-c3ccc(Oc4ccccc4)cc3)c12 (stereo unspecified) | DU-145 prostate | % | 65.6
N#Cc1cccc(-c2c(-c3ccc4ccccc4c3)oc3ccccc3c2=O)c1 | DU-145 prostate | % | 77.1
CCCCN[C@H]1CC[C@@]2(C)[C@@H](CC[C@@]3(C)[C@H]2[C@H](O)C[C@H]2/C(=C(\CCC=C(C)C)C(=O)OC)[C@@H](OC(C)=O)C[C@@]23C)[C@@H]1C | DU-145 prostate | % | 112
COC1=CC(c2ccc[nH]2)=N/C1=C\c1[nH]c(C)c(C(=O)OCc2ccccc2)c1C | DU-145 prostate | % | 12.1
COc1ccc2cc(-c3ccc(NC(C)=O)c(=O)o3)ccc2c1 | DU-145 prostate | % | 103
COC(=O)[C@H]1CCCN1C[C@@H](O)CN1C(=O)/C(=C\c2cc(OC)c(OC)c(OC)c2)c2ccccc21 | DU-145 prostate | % | 99.6
Cc1ccc(CNc2ccc(Cl)cc2NCc2ccc(C)c(O)c2)cc1O | DU-145 prostate | % | 23.4
Cc1nc2ncnc(Cl)c2[nH]1 | DU-145 prostate | % | 106
O=C1/C(=C/c2ccc(Cl)c(Cl)c2)CN(C(=O)C(Cl)Cl)C/C1=C\c1ccc(Cl)c(Cl)c1 | DU-145 prostate | % | -76.1
CCN1CCN(Cc2cn(CC(=O)Nc3ccc4c(ccn4Cc4ccccc4)c3)nn2)CC1 | DU-145 prostate | % | 105
O=C1c2c(c3c4ccccc4[nH]c3c3ccc4ccccc4c23)C(=O)N1CCN1CCCCC1 | DU-145 prostate | % | 26.2
CCOC(=O)Cn1c(O)c(N=Nc2ccc(S(N)(=O)=O)cc2)c2cc(Br)ccc21 | DU-145 prostate | % | 78.7
COc1cc(C(=O)n2nc(N3CCN(C)CC3)c3cc(N)ccc32)cc(OC)c1OC | DU-145 prostate | % | 22.5
Cc1ccc(-c2nn(-c3ccccc3)cc2C=C2C(=O)ON=C2C(C)C)cc1 | DU-145 prostate | % | 88.1
O=C(CSc1nc(-c2ccccc2)[nH]c1S(=O)(=O)c1ccccc1)NC1CC1 | DU-145 prostate | % | 112
COc1ccc2[nH]cc(-c3nc(-c4c[nH]c5ccncc45)cs3)c2c1 | DU-145 prostate | % | 32.9
N#CC1=C(N)Oc2c(sc3c(F)cccc23)C1c1ccc(F)cc1 (stereo unspecified) | DU-145 prostate | % | 16.6
O=C(CSc1nc2ccc([N+](=O)[O-])cc2[nH]1)Nc1cccc(C(F)(F)F)c1 | DU-145 prostate | % | 30.6
COc1ccc2c(O)c(/C=C3\N=Nc4ccccc43)oc2c1C[C@@H]1CCNC[C@H]1F | DU-145 prostate | % | 78.6
O=C1c2cc(Cl)ccc2S(=O)(=O)c2c(NCCCNCCO)nc3ccccc3c21 | DU-145 prostate | % | -24.7

----------
System: IGROV1 ovarian
Experiment: NCI-60 one-dose screen, 48 h (100 = growth as untreated, 0 = no growth, -100 = all killed)
Settings: 10 µM unless noted
Description: Growth inhibition of the IGROV1 human tumor cell line is measured as a screen for anti-cancer activity. Cells are grown in 96 well plates and exposed to the test compound for 48 hours. Compounds are tested at a single concentration, which is 10^-5 M for most compounds. The reported endpoint is percent growth (GI% or GIPRCNT), where numbers from 0 - 100% represent growth inhibition, and numbers from -100% - 0 represent cell death. For example, a value of 40 represents 60% growth inhibition. […]
Compounds without any hit were thinned out: in the full panel of roughly 83,000, 20% have a hit.
observable: growth (%)

input smiles | assay target | result value
CCN1CCN(Cc2cn(CC(=O)Nc3ccc4c(ccn4Cc4ccccc4)c3)nn2)CC1 | IGROV1 ovarian | 105
CCOC(=O)c1cc2c(=O)oc3ccccc3c2oc1=O | IGROV1 ovarian | 103
Cc1ccc(-c2csc(NC(=O)CN3CCN(c4cc5c(cc4F)c(=O)c(C(=O)O)cn5C4CC4)CC3)n2)cc1 | IGROV1 ovarian | 25.4
Cc1cc2c(O)c(-c3cccc(Cl)c3)c3sc(=O)oc3c2cc1C | IGROV1 ovarian | 41
CN(C)CC(=O)Nc1ccc2ncnc(Nc3ccc(Oc4cccc(C(F)(F)F)c4)c(Cl)c3)c2c1 | IGROV1 ovarian | 8.24
O=C(/C=C/c1ccccc1)c1cccc(OCCCOc2cccc(C(=O)/C=C/c3ccccc3)c2)c1 | IGROV1 ovarian | 85.1

----------
Property: growth; scope: individual molecules
Test system: ACHN renal
Experiment: NCI-60 one-dose screen, 48 h (100 = growth as untreated, 0 = no growth, -100 = all killed)
Details: 10 µM unless noted
This is part of a sample that, as a whole, favours compounds with a hit. Of some 83,000 tested, about 20% had one in any assay.

input smiles | unit abbrev | growth
O=C(CCCCCCN1CC(=O)N2[C@H](c3cc(Br)cs3)c3[nH]c4ccccc4c3C[C@H]2C1=O)NO | % | 47.8
CCCCCCNC(=O)Oc1ccc(/C(=C(/C)Cc2ccc(OC)cc2)c2ccc(OCCCN(C)C)cc2)cc1 | % | 37
Clc1ccc(Nc2nnc(COc3ccccc3)c3ccccc23)cc1 | % | 3.37
O=[N+]([O-])/C(=C/C=C/c1ccccc1)c1ccccc1 | % | 10.6

----------
Property: growth; scope: individual compounds
System: SK-MEL-28 melanoma
Assay: NCI-60 one-dose screen, 48 h (100 = growth as untreated, 0 = no growth, -100 = all killed)
Details: 10 µM unless noted
The panel holds about 83,000 compounds, 20% with a hit somewhere; the sample as a whole holds those more often. Activity calls are given as the source filed them. The calls were made as follows: active = growth percent below 10; inactive = the rest.
observable: growth

compound | assay target | result value
O=C(/C=C/c1ccccc1)c1cccc(OCCCOc2cccc(C(=O)/C=C/c3ccccc3)c2)c1 | SK-MEL-28 melanoma | 102% (inactive)
c1ccc(C2=NN[C@H](c3cn(-c4ccccc4)nc3-c3ccccc3)C2)cc1 | SK-MEL-28 melanoma | 50.2% (inactive)
CC(C)NC1CCC(Nc2ccnc3cc(Cl)ccc23)CC1 (stereo not given) | SK-MEL-28 melanoma | 101% (inactive)
O=C(CN1C(=O)CCC1=O)Nc1ncc(Cc2ccc(F)cc2)s1 | SK-MEL-28 melanoma | 106% (inactive)
O=C(O)CCCN1C(=O)/C(=C/C(Cl)=C/c2ccccc2)SC1=S | SK-MEL-28 melanoma | 7.4% (active)
O=C(Cn1c2c(c3ccccc31)CCCC2)Nc1ccc(-c2nc3ccccc3s2)cc1 | SK-MEL-28 melanoma | 103% (inactive)
C/C(=N\NC(=O)c1ccccc1O)c1cccc(/C(C)=N/NC(=O)c2ccccc2O)n1 | SK-MEL-28 melanoma | 52.2% (inactive)
N#Cc1c(NC(=O)c2ccccc2)sc2c1CCC(=O)C2 | SK-MEL-28 melanoma | 17.5% (inactive)
O=C(Nc1ccc(NC(=O)c2cc(=O)[nH]c3ccccc23)cc1)Nc1cccc(C(F)(F)F)c1 | SK-MEL-28 melanoma | 63.6% (inactive)
CC1=Nc2cnc(Nc3ccc(OCCN4CCCC4)cc3)nc2Nc2ccccc21 | SK-MEL-28 melanoma | 94% (inactive)
CC(=O)OC[C@]12CCC(C)(C)C[C@H]1[C@@]1(O)[C@H](O)C[C@@H]3[C@@]4(C)CCCNC(C)(C)[C@@H]4CC[C@@]3(C)[C@]1(C)CC2 | SK-MEL-28 melanoma | 108% (inactive)
COC(=O)c1n[nH]c2ccc3nc(-c4cn[nH]c4C(F)(F)F)c4c(c3c12)CCCC4 | SK-MEL-28 melanoma | 25.5% (inactive)
CN(C)CCCn1c2c(c3ncccc3c1=O)C(=O)c1ccccc1-2 | SK-MEL-28 melanoma | 65% (inactive)
Fc1ccc2[nH]cc(-c3nonc3-c3c[nH]c4ccc(Br)cc34)c2c1 | SK-MEL-28 melanoma | 61.8% (inactive)
COc1ccc2[nH]cc(C(c3cc(F)cc(F)c3)c3c[nH]c4ccc(OC)cc34)c2c1 | SK-MEL-28 melanoma | 105% (inactive)
COc1ccccc1NC(=O)Cn1cc(CN2CCN(c3ccnc4cc(Cl)ccc34)CC2)nn1 | SK-MEL-28 melanoma | 84.1% (inactive)
S=C1CCSC(=S)N1CCCN1C(=S)CCSC1=S | SK-MEL-28 melanoma | 86.6% (inactive)
Oc1c(Cl)cc(Cl)c2ccc(Cn3cc(-c4cc(C(F)(F)F)cc(C(F)(F)F)c4)nn3)nc12 | SK-MEL-28 melanoma | 46% (inactive)
Cc1ccc(C2=Nc3c(N)ncnc3NC(c3ccc4c(c3)OCO4)C2)cc1 (stereo not given) | SK-MEL-28 melanoma | 58% (inactive)
Cc1ccc(Cl)cc1Nc1nc(C(F)(F)F)ccc1C(=O)N/N=C/c1cccnc1 | SK-MEL-28 melanoma | 39.9% (inactive)
Clc1ccc2c(c1)N(c1ncnc3ccc(-c4cnc5[nH]ncc5c4)cc13)CC2 | SK-MEL-28 melanoma | 44.1% (inactive)
CN(CCOc1ccc(C#N)cc1)CCOc1ccc(C#N)cc1 | SK-MEL-28 melanoma | 94.9% (inactive)
CNC(=O)c1cc(Oc2ccc3c(c2)sc2nc(-c4cc(OC)c(OC)c(OC)c4)cn23)ccn1 | SK-MEL-28 melanoma | 63.5% (inactive)
Cc1cccc(N2CCN(CC(O)COc3ccc(Cl)cc3)CC2)c1 (stereo not given) | SK-MEL-28 melanoma | 117% (inactive)
Cc1nc2c(=O)[nH]c(SCC(=O)Nc3cccc(F)c3)nc2[nH]c1=O | SK-MEL-28 melanoma | 107% (inactive)
Cc1ccc(/C=C2\CN(C(=O)OC(C)(C)C)C/C(=C\c3ccc(C)cc3)C2=O)cc1 | SK-MEL-28 melanoma | 87.3% (inactive)
O=C(CSc1nc2ccc([N+](=O)[O-])cc2[nH]1)Nc1cccc(C(F)(F)F)c1 | SK-MEL-28 melanoma | 22.2% (inactive)
Cc1ccc(-c2cc(-c3ccc(Cl)cc3)nc(NC(=O)c3cccnc3)n2)cc1 | SK-MEL-28 melanoma | 106% (inactive)
COc1cc2c(c(OC)c1OC)CCC(c1cccc(C(=O)Nc3cccc(Br)c3)c1)O2 (stereo not given) | SK-MEL-28 melanoma | 87.9% (inactive)
C/C(Nc1ccc(Cl)c(Cl)c1)=C1\CCOC1=O | SK-MEL-28 melanoma | 111% (inactive)
Cc1cc2c(O)c(-c3cccc(Cl)c3)c3sc(=O)oc3c2cc1C | SK-MEL-28 melanoma | 52.2% (inactive)
CCc1ccc(Oc2cn[nH]c2-c2ccc(OCCc3ccc(F)cc3)cc2O)cc1 | SK-MEL-28 melanoma | 87.3% (inactive)
C=CC(=O)NCc1ccc(Nc2nccc(-c3ccc(N4CCCC4)c(C#N)c3)n2)cc1 | SK-MEL-28 melanoma | 45.5% (inactive)
COc1ccc2c(c1)c(-c1noc(C(=O)c3cn(C)c4ccc(Br)cc34)n1)cn2C | SK-MEL-28 melanoma | 117% (inactive)
CC1(C)CC[C@]2(c3nnc(-c4ccncc4)o3)CC[C@H]3C(=CC[C@H]4[C@@]3(C)CC[C@H]3C(C)(C)C(=O)CC[C@]43C)[C@@H]2C1 | SK-MEL-28 melanoma | 87.5% (inactive)
